Field: Ki. System: Alpha-1B adrenergic receptor (Homo sapiens). Provenance: assorted publications.
Sequence (P35368 whole entry): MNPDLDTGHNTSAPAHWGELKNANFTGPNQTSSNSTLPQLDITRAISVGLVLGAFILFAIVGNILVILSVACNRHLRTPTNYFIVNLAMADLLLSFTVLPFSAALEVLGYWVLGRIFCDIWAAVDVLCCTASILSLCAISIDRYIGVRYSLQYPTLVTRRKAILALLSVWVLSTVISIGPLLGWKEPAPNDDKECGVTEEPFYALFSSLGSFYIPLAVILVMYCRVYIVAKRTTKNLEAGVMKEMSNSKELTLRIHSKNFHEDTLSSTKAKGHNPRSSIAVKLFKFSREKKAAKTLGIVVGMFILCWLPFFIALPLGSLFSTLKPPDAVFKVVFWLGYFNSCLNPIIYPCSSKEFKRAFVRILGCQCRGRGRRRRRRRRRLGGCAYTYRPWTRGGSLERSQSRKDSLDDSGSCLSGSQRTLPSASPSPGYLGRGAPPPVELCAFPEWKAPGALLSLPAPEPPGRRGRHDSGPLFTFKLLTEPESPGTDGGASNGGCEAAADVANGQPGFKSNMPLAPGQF

[
  {
    "Compound": "O=S(=O)(c1ccc2cc[nH]c2c1)N1CCC[C@@H]1CCN1CCC(c2c[nH]c3ccccc23)CC1",
    "System Tested": "Alpha-1B adrenergic receptor (Homo sapiens)",
    "Comparison Sign": "=",
    "Ki, nM": 1.29
  },
  {
    "Compound": "O=C1C(CNCCOc2ccccc2)CCC1(c1ccccc1)c1ccccc1 (centres undefined)",
    "System Tested": "Alpha-1B adrenergic receptor (Homo sapiens)",
    "Comparison Sign": ">",
    "Ki, nM": 1000
  },
  {
    "Compound": "Cc1ccc(C(C(=O)NCCCN2CCC(C#N)(c3ccccn3)CC2)c2ccc(C)cc2)cc1",
    "System Tested": "Alpha-1B adrenergic receptor (Homo sapiens)",
    "Comparison Sign": ">",
    "Ki, nM": 2000
  },
  {
    "Compound": "CS(=O)(=O)Oc1ccc2c(c1)CN(CC[C@H]1CC[C@H](NC(=O)/C=C/c3ccc(F)cc3)CC1)C2",
    "System Tested": "Alpha-1B adrenergic receptor (Homo sapiens)",
    "Comparison Sign": ">",
    "Ki, nM": 5010
  },
  {
    "Compound": "COc1cccc2c1CCCC2CCCNCCOc1ccccn1 (centres undefined)",
    "System Tested": "Alpha-1B adrenergic receptor (Homo sapiens)",
    "Comparison Sign": "=",
    "Ki, nM": 26.4
  },
  {
    "Compound": "CC(C)Oc1ccccc1N1CCN(Cc2nc(CN3CCCC3=O)cs2)CC1",
    "System Tested": "Alpha-1B adrenergic receptor (Homo sapiens)",
    "Comparison Sign": "=",
    "Ki, nM": 4250
  },
  {
    "Compound": "CC[C@H]1[C@@H]2c3ccccc3C[C@]12c1c[nH]cn1",
    "System Tested": "Alpha-1B adrenergic receptor (Homo sapiens)",
    "Comparison Sign": "=",
    "Ki, nM": 16.6
  },
  {
    "Compound": "COCC1=C(C(=O)OC)[C@H](c2ccc(F)c(F)c2)N(C(=O)N[C@@H]2CC[C@@H](N3CCC(C#N)(c4ccccc4)CC3)C2)C(=O)N1",
    "System Tested": "Alpha-1B adrenergic receptor (Homo sapiens)",
    "Comparison Sign": "=",
    "Ki, nM": 210
  },
  {
    "Compound": "COc1cccc(OC)c1OCCNC[C@H]1COc2cccc(OC)c2O1.Cl",
    "System Tested": "Alpha-1B adrenergic receptor (Homo sapiens)",
    "Comparison Sign": "=",
    "Ki, nM": 2.75
  }
]
